Biological target: T1, IFF05588
T1 chain: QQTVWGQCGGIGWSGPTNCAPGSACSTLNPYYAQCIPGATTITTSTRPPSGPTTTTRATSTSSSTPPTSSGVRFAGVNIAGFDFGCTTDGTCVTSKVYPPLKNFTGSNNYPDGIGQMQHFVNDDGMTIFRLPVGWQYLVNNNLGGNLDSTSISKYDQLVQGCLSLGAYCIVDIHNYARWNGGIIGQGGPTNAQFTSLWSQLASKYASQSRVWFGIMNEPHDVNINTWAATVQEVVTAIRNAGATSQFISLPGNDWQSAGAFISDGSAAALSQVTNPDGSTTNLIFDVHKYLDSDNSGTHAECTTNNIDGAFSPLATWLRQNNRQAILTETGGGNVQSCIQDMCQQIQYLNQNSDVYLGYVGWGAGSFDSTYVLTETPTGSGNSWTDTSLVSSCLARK
propertyLabel: Relative late peak area (centered, scaled, averaged over 5, 10 and 15 min)
One number for each entry.

In the examples that follow, each entry is paired with its recorded Relative late peak area (centered, scaled, averaged over 5, 10 and 15 min).
INSERT INTO assay_data (protein, valueobserved) VALUES
  ('IFF21364 (protein) QLDKPALTDNLDYLLDGNVANLPSNGGPYWGKWEDGLIPADCKSIAESQGLNPTDFEVYDIFFDDCQDGWSFCRHKDSSDSFETLVDTFGRVPVRMRSWVRHILTIPGNNWAFNSNGNIAFSGTTSSNLDVALHETGHSLDLLGAYGDGALSSSQEWEDAYNADSNVPDNYAQSNQVENVAQNTVVGIYDKVVPGGFPGVQPNYANIQNQYTLLQDKAGEQIIPGGTCDRHLENSDTVSMSGSSSKRDVRAAKARAASHDSALKGKYSNIVKDFKPFNSQDFHH', -0.57),
  ('IFF21357 (protein) GNPDKPEVNPHIPYDRLESDLRNNLHPTQSTWDYWGAGWIPQGCKDLANTYHLNPADFTVFNVHYTDCSASWTFCRHKDAGASEIDMIDMLGRLPVRMRSYTRHLMATPGLNDGAAAWTWSTGDTVVESAPNLATLVHEVSHSLDWHALPQYQQPFSSSSIWQDNYNQDSATPTGYGRTNWMENFAETGMVGVYDKVVPGGIGNIESNWNSIFHQYATYQGYLGDKIIPGGSCANRFDDTAPVTMSNSAKFRVTSPKPETGIDFAGKNITQIIPSKEVEGLFIKG', -1.05),
  ('IFF21359 (protein) TLDKPVIKPPFPNGGLGSLGPDLMSSLPIAAHTTTDWDADHLPRDCKTLAQGAGFSPLDVSAFDIHYDDCKAQPWVFCRHKDSPLSKTDMTELFGRLPVRMRQFIRHIIALPGQRSAGSAGDNIQMNGDCEITVFIHETGHSLDSHAFDPKLGVPFSNGKAWTDAYHKDTAVTDDYGRTSQQENFAQETVVSVYDKNVEGGIGKIQPNAQAIRNAYTTLETYIGNIIIPGGECTHRLENSPSVPKADSARTRLVARAEPVGEGLTRIEPVPFGPILSVRY', 1.3),
  ('IFF05497 (protein) LAILDKPVIQPNFPGNGLASLGQGLMDHLAPTHSTWDDWGAGWIPQDCKSLVEGAGLSASDVIPFNIHYDDCAQTWTFCRHKDSPLSEITILDIFGRLPVRMRSFVRHLVFIPGAKSAGSNGDNVLLRGDIDVTVFAHEIGHSLDSHAFDPSYGVPFSTGNVWISNYNLDSAVPDPYAQTSQQENFAQQTVISLYDKVVPGGIGTIQPNWQAIFHQYATLEGYIGDVIIPGGTCTHRLTDSPPVQMSSLAKGRRALGPKPNVALSPEVEEIEAIPMKSSITMTSFDEAGKPNGTYVINL', -0.77);

Now look at this one.
Value lookup for Relative late peak area (centered, scaled, averaged over 5, 10 and 15 min); key = IFF21349 (protein) VLDKPVIQPNFPGGGLDSLSQGLLDNLAPTQSTWDEWGAGWIPQDCKTLAEGSGFSALDITTFNIYYTDCADAWVFCRHKDAPLSEIDMIDLFGRMPVRMRDFVRHIIAVPGNPSAGSSGDNIQMNGGLPITVFVHETGHSLDSHAFSEPFSLSQAWIDAYNQDSAVPDSYAQTSQQENFAQETVVALYDKVVPGGVGTIQPNWNAIFHAYATLQGYIGDVIIPGGTCVNRLTNSAPVPQSNSAKVRIASEKPDVTLRGNVTVLESIPMGSSIELTHFDAEGKPTGRSTVNLG 0.02

This collection of values is drawn from patent US20250051821.
